test system: Candida albicans; test: Antifungal activity against Candida albicans clinical isolate 2 assessed as fungal growth inhibition at <= […] uM measured after 48 hrs by resazurin assay; type: functional, organism-based
Activity calls are given as the source filed them. No rule for the calls is given here.
QUANTITY_KIND: Activity

- COc1ccc(-c2cc(Nc3cc(O)cc(O)c3C(=O)N3Cc4cccnc4C3)n(C)n2)cc1: Active
- COc1cccc(-c2cc(Nc3cc(O)cc(O)c3C(=O)N3Cc4cn[nH]c4C3)n(C)n2)c1: Active
- Cn1nc(C2CCCCC2)cc1Nc1cc(O)cc(O)c1C(=O)N1Cc2cn[nH]c2C1: Active
- Cn1nc(-c2cccc(C(F)(F)F)c2)cc1Nc1cc(O)cc(O)c1C(=O)N1Cc2cccnc2C1: Active
- COc1ccc(Cn2nc(-c3ccoc3)cc2Nc2cc(O)cc(O)c2C(=O)N2Cc3cccnc3C2)cc1: Active
- CC(C)n1nccc1Nc1cc(O)cc(O)c1C(=O)N1Cc2cn[nH]c2C1: Active
- COc1ccc(Cn2nc(C3CC3)cc2Nc2cc(O)cc(O)c2C(=O)N2Cc3cn[nH]c3C2)cc1: Active
- O=C(c1c(O)cc(O)cc1Nc1ccnn1Cc1ccco1)N1Cc2cccnc2C1: Active
- COc1ccc(Cn2nc(-c3ccccc3)cc2Nc2cc(O)cc(O)c2C(=O)N2CCCC2)cc1: Active
- COc1ccc(-c2cc(Nc3cc(O)cc(O)c3C(=O)N3Cc4cn[nH]c4C3)n(C)n2)cc1: Active
- Cn1nc(-c2ccc(OC(F)(F)F)cc2)cc1Nc1cc(O)cc(O)c1C(=O)N1Cc2cn[nH]c2C1: Active
- O=C(c1c(O)cc(O)cc1Nc1cc(-c2ccccc2)nn1C1CCCCC1)N1Cc2cn[nH]c2C1: Active
- COc1ccc(Cn2ncc(C(C)C)c2Nc2cc(O)cc(O)c2C(=O)N2Cc3ccccc3C2)cc1: Active
- Cn1nc(C2CCCCC2)cc1Nc1cc(O)cc(O)c1C(=O)N1Cc2ccccc2C1: Active
- O=C(c1c(O)cc(O)cc1Nc1ccnn1Cc1ccccc1)N1Cc2cn[nH]c2C1: Active
- Cc1cc(Nc2cc(O)cc(O)c2C(=O)N2Cc3ccccc3C2)n(Cc2ccccc2Cl)n1: Active
- O=C(c1c(O)cc(O)cc1Nc1ccnn1Cc1ccccc1)N1Cc2cccnc2C1: Active
- COc1ccc(Cn2nc(C)cc2Nc2cc(O)cc(O)c2C(=O)N(C)CC2CC2)cc1: Active
- Cn1nc(-c2ccc(C(C)(C)C)cc2)cc1Nc1cc(O)cc(O)c1C(=O)N1Cc2ccccc2C1: Active

----------
test system: Candida albicans; experiment: Antifungal activity against Candida albicans clinical isolate 2 assessed as fungal growth inhibition at <= […] uM measured after 48 hrs by resazurin assay; assay type: functional, organism-based
Calls of active or inactive are those of the source. The rule behind the calls is not given here.
QUANTITY_KIND: Activity

• COc1ccc(Cn2nc(C(C)(C)C)cc2Nc2cc(O)cc(O)c2C(=O)N2Cc3ccccc3C2)cc1 = Active
• CC(C)c1cc(Nc2cc(O)cc(O)c2C(=O)N2Cc3ccccc3C2)n(C)n1 = Active
• COc1ccc(Cn2nccc2Nc2cc(O)cc(O)c2C(=O)N2Cc3ccccc3C2)cc1 = Active
• COc1ccc(Cn2nc(C3CCCC3)cc2Nc2cc(O)cc(O)c2C(=O)N2Cc3cccnc3C2)cc1 = Active
• O=C(c1c(O)cc(O)cc1Nc1ccnn1-c1ccccc1)N1Cc2cccnc2C1 = Active
• COc1ccc(Cn2nc(C)cc2Nc2cc(O)cc(O)c2C(=O)N2Cc3ccccc3C2)cc1 = Active
• CC(C)n1nccc1Nc1cc(O)cc(O)c1C(=O)N1Cc2cccnc2C1 = Active
• COc1ccc(Cn2ncc(Cc3ccccc3)c2Nc2cc(O)cc(O)c2C(=O)N2Cc3ccccc3C2)cc1 = Active
• Cn1nc(C2CCCCC2)cc1Nc1cc(O)cc(O)c1C(=O)N1Cc2cccnc2C1 = Active

----------
experiment: Half life in CD-1 mouse liver microsomes at 1 uM measured up to 120 mins by LC-MS/MS analysis
QUANTITY_KIND: half-life at 2 h, 1 µM (min)

• Cn1nc(C2CCCCC2)cc1Nc1cc(O)cc(O)c1C(=O)N1Cc2cn[nH]c2C1 = 2.74
• COc1cccc(-c2cc(Nc3cc(O)cc(O)c3C(=O)N3Cc4cccnc4C3)n(C)n2)c1 = 3.44
• CC(C)c1ccc(Cn2nccc2Nc2cc(O)cc(O)c2C(=O)N2Cc3ccccc3C2)cc1 = 3.1
• Cc1cccc(-c2cc(Nc3cc(O)cc(O)c3C(=O)N3Cc4cn[nH]c4C3)n(C)n2)c1 = 9.38
• COc1cccc(-c2cc(Nc3cc(O)cc(O)c3C(=O)N3Cc4ccccc4C3)n(C)n2)c1 = 3.15
• Cn1nc(-c2ccc(C(C)(C)C)cc2)cc1Nc1cc(O)cc(O)c1C(=O)N1Cc2cn[nH]c2C1 = 6.44

----------
assay: Microsomal stability in CD-1 mouse liver microsomes assessed as parent compound remaining at 1 uM measured at 60 mins by LC-MS/MS analysis; format: ADME, Microsome; conditions: read-out: Stability
Property: remaining at 1 h, 1 µM; scope: individual molecules
QUANTITY_KIND: remaining at 1 h, 1 µM (%)

• COc1cccc(-c2cc(Nc3cc(O)cc(O)c3C(=O)N3Cc4cn[nH]c4C3)n(C)n2)c1 = 7
• COc1cccc(-c2cc(Nc3cc(O)cc(O)c3C(=O)N3Cc4ccccc4C3)n(C)n2)c1 = 0
• Cn1nc(-c2ccc(OC(F)(F)F)cc2)cc1Nc1cc(O)cc(O)c1C(=O)N1Cc2cccnc2C1 = 3.9
• COc1cccc(-c2cc(Nc3cc(O)cc(O)c3C(=O)N3Cc4cccnc4C3)n(C)n2)c1 = 0
• CC(C)c1ccc(Cn2nccc2Nc2cc(O)cc(O)c2C(=O)N2Cc3ccccc3C2)cc1 = 1.8
• Cn1nc(-c2ccc(C(C)(C)C)cc2)cc1Nc1cc(O)cc(O)c1C(=O)N1Cc2cn[nH]c2C1 = 0.5
• Cn1nc(-c2ccc(OC(F)(F)F)cc2)cc1Nc1cc(O)cc(O)c1C(=O)N1Cc2cn[nH]c2C1 = 20.6
• Cn1nc(C2CCCCC2)cc1Nc1cc(O)cc(O)c1C(=O)N1Cc2cn[nH]c2C1 = 0.06
• Cc1cccc(-c2cc(Nc3cc(O)cc(O)c3C(=O)N3Cc4cn[nH]c4C3)n(C)n2)c1 = 1.8

----------
Property: pEC50; scope: individual molecules
experiment: Displacement of Cy3-labeled geldanamycin from HSP90 in Candida albicans clinical isolate 2 cell lysate measured after […] by fluorescence polarization assay; assay type: subcellular
pEC50: −log10 of the molar value.
QUANTITY_KIND: pEC50

- CCN(CC)C(=O)c1c(O)cc(O)cc1Nc1cc(-c2ccccc2)nn1Cc1ccc(OC)cc1: < 5.00
- COc1ccc(Cn2nc(C)cc2Nc2cc(O)cc(O)c2C(=O)N(C)CC2CC2)cc1: < 5.05
- COc1ccc(Cn2nc(C)cc2Nc2cc(O)cc(O)c2C(=O)N(C)Cc2ccccc2)cc1: < 5.22
- COc1ccc(Cn2nc(-c3ccccc3)cc2Nc2cc(O)cc(O)c2C(=O)N(C)CC2CC2)cc1: < 5.05

----------
system: Candida albicans; assay: Antifungal activity against Candida albicans clinical isolate 2 assessed as fungal growth inhibition at <= […] uM measured after 48 hrs by resazurin assay; format: functional, organism-based
Calls of active or inactive are those of the source. How the calls were made is not given here.
QUANTITY_KIND: Activity

* O=C(c1c(O)cc(O)cc1Nc1ccnn1CC1CCCCC1)N1Cc2ccccc2C1 | Active
* O=C(c1c(O)cc(O)cc1Nc1cc(-c2ccccc2)nn1C1CCCCC1)N1Cc2cccnc2C1 | Active
* O=C(c1c(O)cc(O)cc1Nc1ccnn1-c1ccccc1)N1Cc2cn[nH]c2C1 | Active
* COc1cccc(-c2cc(Nc3cc(O)cc(O)c3C(=O)N3Cc4ccccc4C3)n(C)n2)c1 | Active
* Cn1nc(-c2ccc(C(F)(F)F)cc2)cc1Nc1cc(O)cc(O)c1C(=O)N1Cc2ccccc2C1 | Active
* COc1ccc(Cn2nc(C)cc2Nc2cc(O)cc(O)c2C(=O)N2Cc3cn[nH]c3C2)cc1 | Active
* O=C(c1c(O)cc(O)cc1Nc1ccnn1CC1CCCCC1)N1Cc2cn[nH]c2C1 | Active
* O=C(c1c(O)cc(O)cc1Nc1ccnn1Cc1ccc(C(F)(F)F)cc1)N1Cc2cccnc2C1 | Active
* COc1ccc(Cn2nc(-c3ccccc3)cc2Nc2cc(O)cc(O)c2C(=O)N2Cc3ccccc3C2)cc1 | Active
* O=C(c1c(O)cc(O)cc1Nc1ccnn1Cc1ccc(C(F)(F)F)cc1)N1Cc2cn[nH]c2C1 | Active
* O=C(c1c(O)cc(O)cc1Nc1ccnn1Cc1ccco1)N1Cc2cn[nH]c2C1 | Active
* CC(C)c1cc(Nc2cc(O)cc(O)c2C(=O)N2Cc3cn[nH]c3C2)n(C)n1 | Active
* COc1ccc(Cn2ncc(-c3ccccc3)c2Nc2cc(O)cc(O)c2C(=O)N2Cc3ccccc3C2)cc1 | Active
* COc1ccc(Cn2nc(-c3ccccc3)cc2Nc2cc(O)cc(O)c2C(=O)N2Cc3ccc(F)cc3C2)cc1 | Active
* CC(C)n1nccc1Nc1cc(O)cc(O)c1C(=O)N1Cc2ccccc2C1 | Active
* O=C(c1c(O)cc(O)cc1Nc1ccnn1C1CCCCC1)N1Cc2ccccc2C1 | Active
* COc1ccc(Cn2nc(C)cc2Nc2cc(O)cc(O)c2C(=O)N2Cc3ccc(F)cc3C2)cc1 | Active
* Cc1ccccc1-c1cc(Nc2cc(O)cc(O)c2C(=O)N2Cc3cccnc3C2)n(C)n1 | Active
* O=C(c1c(O)cc(O)cc1Nc1ccnn1-c1ccccc1)N1Cc2ccccc2C1 | Active
* Cc1ccccc1-c1cc(Nc2cc(O)cc(O)c2C(=O)N2Cc3ccccc3C2)n(C)n1 | Active
* COc1ccc(Cn2nc(-c3ccccc3)cc2Nc2cc(O)cc(O)c2C(=O)N2Cc3ccc(NC4CCN(C)CC4)cc3C2)cc1 | Active
* COc1ccc(Cn2nc(C(C)C)cc2Nc2cc(O)cc(O)c2C(=O)N2Cc3cccnc3C2)cc1 | Active
* COc1ccc(Cn2nc(C)cc2Nc2cc(O)cc(O)c2C(=O)N2Cc3ccc(NC4CCN(C)CC4)cc3C2)cc1 | Active
* CC(C)c1ccc(Cn2nccc2Nc2cc(O)cc(O)c2C(=O)N2Cc3cccnc3C2)cc1 | Active
* Cc1ccc(-c2cc(Nc3cc(O)cc(O)c3C(=O)N3Cc4cccnc4C3)n(C)n2)cc1 | Active
* Cn1nc(-c2ccc(C(F)(F)F)cc2)cc1Nc1cc(O)cc(O)c1C(=O)N1Cc2cn[nH]c2C1 | Active
* CC(C)Cn1nccc1Nc1cc(O)cc(O)c1C(=O)N1Cc2cccnc2C1 | Active
* O=C(c1c(O)cc(O)cc1Nc1ccnn1Cc1cccnc1)N1Cc2ccccc2C1 | Active
* Cn1nc(-c2cccc(C(F)(F)F)c2)cc1Nc1cc(O)cc(O)c1C(=O)N1Cc2ccccc2C1 | Active
* CC(C)Cn1nc(-c2ccccc2)cc1Nc1cc(O)cc(O)c1C(=O)N1Cc2cn[nH]c2C1 | Active
* CC(C)c1cc(Nc2cc(O)cc(O)c2C(=O)N2Cc3cccnc3C2)n(C)n1 | Active
* O=C(c1c(O)cc(O)cc1Nc1ccnn1Cc1cccnc1)N1Cc2cccnc2C1 | Active
* Cn1nc(-c2ccc(C(F)(F)F)cc2)cc1Nc1cc(O)cc(O)c1C(=O)N1Cc2cccnc2C1 | Active
* Cc1cccc(-c2cc(Nc3cc(O)cc(O)c3C(=O)N3Cc4ccccc4C3)n(C)n2)c1 | Active
* COc1ccc(Cn2nc(C3CCCC3)cc2Nc2cc(O)cc(O)c2C(=O)N2Cc3cn[nH]c3C2)cc1 | Active
* Cc1ccccc1-c1cc(Nc2cc(O)cc(O)c2C(=O)N2Cc3cn[nH]c3C2)n(C)n1 | Active
* Cn1nc(-c2ccc(OC(F)(F)F)cc2)cc1Nc1cc(O)cc(O)c1C(=O)N1Cc2cccnc2C1 | Active

// data source = ChEMBL document CHEMBL4402526
